From: the NIST ThermoML archive (doi:10.1016/j.fluid.2018.09.024)

Consider the following compounds; for each one, report its activity coefficient.
experiment: activity coefficient (dimensionless); of the first substance listed, at infinite dilution; xn = mol fraction of the nth substance listed; details: 348.15 K; 101.33 kPa; Liquid; Chromatography; x1 = 0

Take a look at these entries with their results.
CCCCCCCC [octane] + CCCCCCCCCCCC[N+](C)(C)CCOc1ccccc1.N#C[N-]C#N    6.87
CC(C)(C)O [2-methylpropan-2-ol] + CCCCCCCCCCCC[N+](C)(C)CCOc1ccccc1.O=S(=O)([N-]S(=O)(=O)C(F)(F)F)C(F)(F)F    1.02
CCC(C)CC [3-methylpentane] + CCCCCCCCCCCC[N+](C)(C)CCOc1ccccc1.N#C[N-]C#N    5.41

Form field: reported activity coefficient of CC(C)=O [acetone] + CCCCCCCCCCCC[N+](C)(C)CCOc1ccccc1.O=S(=O)([N-]S(=O)(=O)C(F)(F)F)C(F)(F)F 0.398
